Provenance of the data: patent US20250152526A1

Biological target: CYP2C19 (Homo sapiens)
Sequence (P33261 whole entry): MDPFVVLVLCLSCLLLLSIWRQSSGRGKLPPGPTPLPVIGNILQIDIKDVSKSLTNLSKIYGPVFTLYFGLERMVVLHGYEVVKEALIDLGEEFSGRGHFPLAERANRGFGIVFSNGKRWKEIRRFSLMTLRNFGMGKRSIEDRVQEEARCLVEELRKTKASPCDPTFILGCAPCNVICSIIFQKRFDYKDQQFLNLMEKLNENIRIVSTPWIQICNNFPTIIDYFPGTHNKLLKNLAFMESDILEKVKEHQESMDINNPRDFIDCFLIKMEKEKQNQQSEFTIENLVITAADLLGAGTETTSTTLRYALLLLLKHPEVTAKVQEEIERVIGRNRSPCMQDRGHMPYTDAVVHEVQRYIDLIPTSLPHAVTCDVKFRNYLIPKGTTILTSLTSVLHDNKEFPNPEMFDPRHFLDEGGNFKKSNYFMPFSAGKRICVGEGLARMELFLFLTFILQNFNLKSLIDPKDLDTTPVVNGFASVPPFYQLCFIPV
Test Readout: IC50

**Query** Fill: IC50 (CYP2C19 (Homo sapiens)) for this compound CN(C)CCCNC(=O)/C(=C/CCCCC(=O)NO)COc1cccc2ccccc12.O=P(O)(O)O [ivaltinostat, phosphate]
**Result** > 90 µM

----------
Target: CYP2C9 (Homo sapiens)
Sequence (P11712 whole entry): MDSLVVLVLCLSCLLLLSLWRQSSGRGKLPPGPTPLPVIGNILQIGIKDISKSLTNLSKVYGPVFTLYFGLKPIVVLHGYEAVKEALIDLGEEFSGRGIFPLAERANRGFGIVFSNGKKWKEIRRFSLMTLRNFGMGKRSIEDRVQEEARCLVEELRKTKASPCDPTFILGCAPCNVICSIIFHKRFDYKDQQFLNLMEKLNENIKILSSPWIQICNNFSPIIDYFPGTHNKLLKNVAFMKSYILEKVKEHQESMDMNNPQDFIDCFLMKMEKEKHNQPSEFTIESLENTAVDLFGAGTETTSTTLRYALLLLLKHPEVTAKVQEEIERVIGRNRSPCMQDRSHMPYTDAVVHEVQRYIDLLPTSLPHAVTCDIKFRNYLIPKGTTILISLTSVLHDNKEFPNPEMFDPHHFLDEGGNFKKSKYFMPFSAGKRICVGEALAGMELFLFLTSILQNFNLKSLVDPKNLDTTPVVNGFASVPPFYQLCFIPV
Test: in vitro CYP inhibition
Type: in vitro ADME
pIC50: −log10 of the molar value.
Test Readout: pIC50

**Query** State its pIC50 for this compound: CN(C)CCCNC(=O)/C(=C/CCCCC(=O)NO)COc1cccc2ccccc12.O=P(O)(O)O [ivaltinostat, phosphate]
**Result** < 4.05

----------
Target: CYP3A4 (Homo sapiens, UniProt P08684)
Sequence (P08684 whole entry): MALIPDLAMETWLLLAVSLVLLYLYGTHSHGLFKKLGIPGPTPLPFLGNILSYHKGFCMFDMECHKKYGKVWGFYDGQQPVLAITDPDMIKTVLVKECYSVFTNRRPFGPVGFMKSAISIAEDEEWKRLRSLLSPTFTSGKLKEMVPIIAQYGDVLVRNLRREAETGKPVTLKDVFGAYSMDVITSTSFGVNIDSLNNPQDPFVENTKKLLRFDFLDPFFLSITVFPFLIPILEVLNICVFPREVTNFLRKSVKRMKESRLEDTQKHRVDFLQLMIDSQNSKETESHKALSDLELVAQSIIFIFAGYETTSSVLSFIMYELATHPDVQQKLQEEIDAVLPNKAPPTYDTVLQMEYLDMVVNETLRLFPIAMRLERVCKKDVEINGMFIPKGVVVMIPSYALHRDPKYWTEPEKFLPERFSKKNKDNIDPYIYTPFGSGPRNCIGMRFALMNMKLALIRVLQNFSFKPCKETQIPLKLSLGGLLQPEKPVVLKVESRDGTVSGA
pIC50: −log10 of the molar value.
Test Readout: pIC50

**Query** State the measured pIC50 (CYP3A4 (Homo sapiens, UniProt P08684)) of CN(C)CCCNC(=O)/C(=C/CCCCC(=O)NO)COc1cccc2ccccc12.O=P(O)(O)O [ivaltinostat, phosphate]
**Result** < 5.00

----------
Molecular target: CYP2D6 (Homo sapiens)
Sequence (P10635 whole entry): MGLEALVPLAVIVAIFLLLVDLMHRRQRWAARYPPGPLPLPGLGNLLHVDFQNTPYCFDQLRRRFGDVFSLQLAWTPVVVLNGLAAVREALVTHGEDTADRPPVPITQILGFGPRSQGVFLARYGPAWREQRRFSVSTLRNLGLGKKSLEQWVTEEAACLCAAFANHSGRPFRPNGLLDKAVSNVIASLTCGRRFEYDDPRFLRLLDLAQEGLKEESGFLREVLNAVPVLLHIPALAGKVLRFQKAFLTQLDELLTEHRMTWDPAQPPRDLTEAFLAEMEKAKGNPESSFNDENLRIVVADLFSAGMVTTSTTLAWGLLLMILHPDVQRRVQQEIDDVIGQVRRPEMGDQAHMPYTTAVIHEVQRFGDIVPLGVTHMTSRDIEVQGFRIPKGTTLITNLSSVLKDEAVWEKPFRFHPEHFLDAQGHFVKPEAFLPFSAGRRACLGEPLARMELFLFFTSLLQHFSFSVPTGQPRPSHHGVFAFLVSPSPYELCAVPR
Test Readout: IC50 (µM)
Return type: number; implicit unit µM.

**Query** Using CYP2D6 (Homo sapiens) as the test system, report measured IC50 of CN(C)CCCNC(=O)/C(=C/CCCCC(=O)NO)COc1cccc2ccccc12.O=P(O)(O)O [ivaltinostat, phosphate] .
**Result** 5.5

----------
Molecular target: UniProtKB P05177
Sequence (P05177 1-516): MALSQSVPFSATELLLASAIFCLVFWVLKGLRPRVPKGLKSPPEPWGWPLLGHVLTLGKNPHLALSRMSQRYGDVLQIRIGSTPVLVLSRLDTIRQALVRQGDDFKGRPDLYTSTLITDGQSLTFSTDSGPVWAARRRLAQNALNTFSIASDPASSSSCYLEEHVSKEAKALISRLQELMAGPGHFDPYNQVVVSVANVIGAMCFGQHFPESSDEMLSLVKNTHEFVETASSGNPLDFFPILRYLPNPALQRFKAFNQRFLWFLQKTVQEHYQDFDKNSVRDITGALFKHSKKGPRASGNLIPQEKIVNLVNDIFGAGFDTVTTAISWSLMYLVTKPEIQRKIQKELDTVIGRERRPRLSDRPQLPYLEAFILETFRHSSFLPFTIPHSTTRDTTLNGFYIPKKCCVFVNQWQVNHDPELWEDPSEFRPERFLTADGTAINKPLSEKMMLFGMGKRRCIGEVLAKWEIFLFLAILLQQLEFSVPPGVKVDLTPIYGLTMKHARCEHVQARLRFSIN
pIC50: −log10 of the molar value.
Test Readout: pIC50

**Query** Output pIC50 of CN(C)CCCNC(=O)/C(=C/CCCCC(=O)NO)COc1cccc2ccccc12.O=P(O)(O)O [ivaltinostat, phosphate]
**Result** < 5.00
